Assay: Stability in fed intestinal fluid (FESSIF), HPLC
Type: in vitro ADME
Details: fed-state simulated intestinal fluid (FESSIF), pH=5, read-out: FESSIF t1/2
Observed Property: half-life

Input line: Which half-life is reported for this compound? C[C@@H]1O[C@@H](O[C@@H]2[C@@H](O)[C@H](OCCc3ccc(O)c(O)c3)O[C@H](CO)[C@H]2OC(=O)/C=C/c2ccc(O)c(O)c2)[C@H](O)[C@H](O)[C@H]1O [(A), Verbascoside]
Output line: > 24 h
